For each entry below, report its melting point value.

Some molecules with known melting point results, for comparison:
molecule="CSC(=NS(=O)(=O)N1CCCCC1)N1CC(c2ccccc2F)C(c2ccc(Cl)cc2)=N1 (centres unmarked) [Example 48]" result="196 to 198 °C"
molecule="CCCN(CC)S(=O)(=O)N=C(NC)N1CC(c2ccccc2)C(c2ccc(Cl)cc2)=N1 (centres unmarked) [Example 1]" result="129 to 131 °C"
molecule="CCCN(CCC)S(=O)(=O)N=C(NC)N1CC(c2ccccc2)C(c2ccc(Cl)cc2)=N1 (centres unmarked) [Example 26]" result="141 to 142 °C"
molecule="CNC(=NS(=O)(=O)N1CCOCC1)N1CC(c2ccccc2F)C(c2ccc(Cl)cc2)=N1 (centres unmarked) [Example 86]" result="165 to 168 °C"
molecule="CCN(C)S(=O)(=O)N=C(SC)N1CC(c2cccnc2)C(c2ccc(Cl)cc2)=N1 (centres unmarked) [Example 44]" result="133 to 136 °C"
molecule="CSC(=NS(=O)(=O)N1CCCCC1)N1CC(c2c(F)cccc2F)C(c2ccc(Cl)cc2)=N1 (centres unmarked) [Example 51]" result="221 to 225 °C"
molecule="CCN(CC)S(=O)(=O)N=C(N(C)C)N1CC(O)(c2ccccc2)C(c2ccc(Cl)cc2)=N1 (centres unmarked) [Example 63]" result="135 to 137 °C"

IN: Please give the measured melting point for this molecule: CNC(=NS(=O)(=O)N1CCCCC1)N1CC(c2cccc(F)c2)C(c2ccc(Cl)cc2)=N1 (centres unmarked) [Example 82]
OUT: 170 °C

---

reportedEndpoint: melting point

Solved cases below.
compound="CNC(=NS(=O)(=O)N1CCCCC1)N1CC(c2ccccc2F)C(c2ccc(Cl)cc2)=N1 (centres unmarked)" result="223 to 225 °C"
compound="CN(C)S(=O)(=O)N=C(NCCO)N1CC(c2ccccc2)C(c2ccc(Cl)cc2)=N1 (centres unmarked)" result="123 to 126 °C"

Provide melting point values for the following items, in order.
1. CSC(=NS(=O)(=O)N1CCCCC1)N1CC(c2ccccc2)C(c2ccc(Cl)cc2)=N1 (centres unmarked)
2. CC(C)NC(=NS(=O)(=O)N(C)C)N1CC(c2ccccc2)C(c2ccc(Cl)cc2)=N1 (centres unmarked)
3. CCN(CC)S(=O)(=O)N=C(NC1CC1)N1CC(c2ccccc2)C(c2ccc(Cl)cc2)=N1 (centres unmarked)
4. CSC(=NS(=O)(=O)N1CCOCC1)N1CC(c2ccccc2)C(c2ccc(Cl)cc2)=N1 (centres unmarked)
5. CSC(=NS(=O)(=O)N1CCS(=O)(=O)CC1)N1CC(c2ccccc2)C(c2ccc(Cl)cc2)=N1 (centres unmarked)
6. CSC(=NS(=O)(=O)N1CCOCC1)N1CC(c2c(F)cccc2F)C(c2ccc(Cl)cc2)=N1 (centres unmarked)

OUT:
1: 192 to 194 °C; 2: 169 to 170 °C; 3: 150 to 151 °C; 4: 202 to 204 °C; 5: 216 to 217 °C; 6: 231 to 233 °C
